Assayed target: ΔF508-CFTR (Homo sapiens, UniProt P13569, DEL508-508)
Construct: host or cells: CFBE41o-, doxycycline-inducible
Sequence (P13569 with tags, fused parts or gaps DEL508-508): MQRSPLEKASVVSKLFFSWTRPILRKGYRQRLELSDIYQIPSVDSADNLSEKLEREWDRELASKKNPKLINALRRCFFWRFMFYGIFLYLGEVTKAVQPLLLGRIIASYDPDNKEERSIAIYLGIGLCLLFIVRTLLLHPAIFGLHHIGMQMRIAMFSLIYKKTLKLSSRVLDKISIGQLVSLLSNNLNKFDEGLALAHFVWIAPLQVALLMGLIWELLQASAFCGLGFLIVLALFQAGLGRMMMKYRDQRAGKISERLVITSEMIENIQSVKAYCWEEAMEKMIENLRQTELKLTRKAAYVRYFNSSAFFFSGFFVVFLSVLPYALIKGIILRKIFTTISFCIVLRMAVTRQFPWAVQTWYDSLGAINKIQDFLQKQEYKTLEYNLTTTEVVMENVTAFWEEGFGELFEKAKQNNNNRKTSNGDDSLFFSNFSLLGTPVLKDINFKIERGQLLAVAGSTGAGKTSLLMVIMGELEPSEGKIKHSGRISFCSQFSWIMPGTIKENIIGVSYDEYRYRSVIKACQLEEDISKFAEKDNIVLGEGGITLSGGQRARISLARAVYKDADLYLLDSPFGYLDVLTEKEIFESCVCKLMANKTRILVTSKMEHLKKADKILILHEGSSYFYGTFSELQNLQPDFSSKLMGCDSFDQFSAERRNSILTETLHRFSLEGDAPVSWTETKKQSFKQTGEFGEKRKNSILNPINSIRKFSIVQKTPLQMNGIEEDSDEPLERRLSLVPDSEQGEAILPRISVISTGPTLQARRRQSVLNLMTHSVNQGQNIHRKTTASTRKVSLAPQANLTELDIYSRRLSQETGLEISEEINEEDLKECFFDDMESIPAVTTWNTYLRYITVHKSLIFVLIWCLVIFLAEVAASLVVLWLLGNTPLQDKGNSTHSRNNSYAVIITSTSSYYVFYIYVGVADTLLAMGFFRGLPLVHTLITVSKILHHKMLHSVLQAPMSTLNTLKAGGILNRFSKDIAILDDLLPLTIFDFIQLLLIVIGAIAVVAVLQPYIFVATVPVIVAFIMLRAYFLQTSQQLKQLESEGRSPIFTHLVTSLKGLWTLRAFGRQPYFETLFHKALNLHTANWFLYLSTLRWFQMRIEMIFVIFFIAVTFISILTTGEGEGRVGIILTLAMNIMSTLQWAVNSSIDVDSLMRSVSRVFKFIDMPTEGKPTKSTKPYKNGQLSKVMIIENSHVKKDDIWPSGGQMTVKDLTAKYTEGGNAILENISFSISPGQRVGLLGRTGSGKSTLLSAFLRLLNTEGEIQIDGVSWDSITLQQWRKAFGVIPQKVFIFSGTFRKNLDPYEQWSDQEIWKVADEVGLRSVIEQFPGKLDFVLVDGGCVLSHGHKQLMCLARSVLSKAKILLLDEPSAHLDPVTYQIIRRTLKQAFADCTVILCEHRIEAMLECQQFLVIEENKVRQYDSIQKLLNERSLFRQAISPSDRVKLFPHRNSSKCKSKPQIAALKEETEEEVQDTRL
Method description: CFTR cell surface levels using HRP-tagged ΔF508-CFTR expressing CFBE cells, in the presence of a co-corrector
Type: cell-based
Condition details: HRP-tagged ΔF508-CFTR CFBE cells, in the presence of 3 μM co-corrector
As shown below, each of these compounds has a reported % Activation value.
A number alone suffices; assume %.

Examples with answers:
1. CC(C)Oc1nn(C2CCCCC2)c2nc(C(=O)NS(C)(=O)=O)cc(-c3ccc(CN4CC(N(C)C)C4)cc3)c12	400.44
2. Cc1cccc(-n2nc(C3CCC3)c3c(N4CCC(N5CCOCC5)CC4)cc(C(=O)NS(=O)(=O)N(C)C)nc32)c1	456.3
3. CC(C)c1nn(-c2ccc(F)cc2)c2nc(C(=O)NS(C)(=O)=O)cc(OCC3COCCO3)c12 (stereo not shown)	291.5
4. COCC1CCCN(c2cc(C(=O)NS(C)(=O)=O)nc3c2c(C2CCC2)nn3-c2ccccc2)C1 (stereo not shown)	290.05
5. Cc1nn(-c2cccc(C(F)(F)F)c2)c2nc(C(=O)NS(C)(=O)=O)cc(-c3ccc(N4CCOCC4)cc3)c12	441.85
6. CC(C)c1nn(-c2cccc(N3CCOCC3)c2)c2nc(C(=O)NS(C)(=O)=O)cc(-c3ccc(N4CCC(C#N)CC4)nc3)c12	570.16

Here is the next item to consider.
Input line: Tell me the measured % Activation of CC(C1CCN(c2cc(C(=O)NS(C)(=O)=O)nc3c2c(C2CCC2)nn3-c2ccc(F)cc2)CC1)N1CCOCC1 (stereo not shown) , please.
Output line: 671.25
